From: ChEMBL document CHEMBL2062480

system: MCF7; assay: Antiproliferative activity against human MCF7 cells assessed as cell viability at 30 uM after 48 hrs by MTT assay; format: functional; conditions: MCF7, 48 h, read-out: Activity
Hi! Just check whether viability at 30 µM is below 30%. Below gives true, equal or above gives false.

Consider the worked cases shown below.
1) CC(C)(O)CCC[C@@](C)(O)[C@H]1CC[C@]2(C)[C@@H]1[C@H](OC=O)C[C@@H]1[C@@]3(C)CC[C@H](OC=O)C(C)(C)[C@@H]3CC[C@]12C: true
2) O=c1[nH]cc(F)c(=O)[nH]1: false
3) CC(C)(O)CCC[C@@](C)(O)[C@H]1CC[C@]2(C)[C@@H]1[C@H](O)C[C@@H]1[C@@]3(C)CC[C@H](O)C(C)(C)[C@@H]3CC[C@]12C: false
4) CC(=O)O[C@@H]1C[C@@H]2[C@@]3(C)CC[C@H](O)C(C)(C)[C@@H]3CC[C@@]2(C)[C@]2(C)CC[C@H]([C@](C)(O)CCCC(C)(C)O)[C@@H]12: true

Task item: Is viability at 30 µM strictly under 30% for the entry CCCC(=O)O[C@@H]1C[C@@H]2[C@@]3(C)CC[C@H](O)C(C)(C)[C@@H]3CC[C@@]2(C)[C@]2(C)CC[C@H]([C@](C)(O)CCCC(C)(C)O)[C@@H]12 ?
Reply: true

Task item: Is viability at 30 µM strictly under 30% for the entry CCC(=O)O[C@@H]1C[C@@H]2[C@@]3(C)CC[C@H](O)C(C)(C)[C@@H]3CC[C@@]2(C)[C@]2(C)CC[C@H]([C@](C)(O)CCCC(C)(C)O)[C@@H]12 ?
Reply: true

Task item: Is viability at 30 µM strictly under 30% for the entry CC(C)(O)CCC[C@@](C)(O)[C@H]1CC[C@]2(C)[C@@H]1[C@H](OC=O)C[C@@H]1[C@@]3(C)CC[C@H](O)C(C)(C)[C@@H]3CC[C@]12C ?
Reply: true
